Reference for the values: patent US10829501B2

Assignment: determine reported pIC50 for the given molecules.
Molecular target: ROCK2 (Homo sapiens)
Assay: ROCK2 kinase inhibition assay (LABCHIP 3000 Reader, FITC peptide substrate)
pIC50: −log10 of the molar value.

Looking up COc1ccc(NC(=O)N[C@H]2CC3(C2)C[C@H](Oc2ccccc2C(N)=O)C3)cc1 (stereo partly shown) , I see its pIC50 listed as 6.60 to 7.30

Looking up NC(=O)c1cccnc1O[C@H]1CC2(C[C@H](NC(=O)c3cnc4cc(N5CC[C@H](F)C5)ccn34)C2)C1 (stereo partly shown) , I see its pIC50 listed as > 8.30

Looking up COc1cccc(-n2cc(C(=O)NC3CC4(C3)CC(Oc3ncccc3C(N)=O)C4)cn2)c1 (stereo not shown) , I see its pIC50 listed as 7.30 to 8.30

Looking up COc1ccc(C(N)=O)c(OC2CC3(CC(NC(=O)c4cnn5c(C6CC6)c(OCC(C)(C)O)ccc45)C3)C2)c1 (stereo not shown) , I see its pIC50 listed as > 8.30

Looking up CC(C)(O)COc1ccc2c(C(=O)NC3CC4(C3)CC(Oc3cc(OC(F)F)ccc3C(N)=O)C4)cnn2c1 (stereo not shown) , I see its pIC50 listed as 7.30 to 8.30

Looking up COc1ccc2c(c1)CCN2C(=O)NC1CC2(C1)CC(Oc1ncccc1C(N)=O)C2 (stereo not shown) , I see its pIC50 listed as 6.60 to 7.30

Looking up NC(=O)c1cccnc1O[C@H]1CC2(C[C@H](NC(=O)c3ccc(-c4cccc(F)c4)cc3)C2)C1 (stereo partly shown) , I see its pIC50 listed as 7.30 to 8.30

---

Assignment: determine reported pIC50 for the given molecules.
Target: ROCK2 (Homo sapiens, UniProt O75116)
Sequence (O75116 whole entry, species assumed): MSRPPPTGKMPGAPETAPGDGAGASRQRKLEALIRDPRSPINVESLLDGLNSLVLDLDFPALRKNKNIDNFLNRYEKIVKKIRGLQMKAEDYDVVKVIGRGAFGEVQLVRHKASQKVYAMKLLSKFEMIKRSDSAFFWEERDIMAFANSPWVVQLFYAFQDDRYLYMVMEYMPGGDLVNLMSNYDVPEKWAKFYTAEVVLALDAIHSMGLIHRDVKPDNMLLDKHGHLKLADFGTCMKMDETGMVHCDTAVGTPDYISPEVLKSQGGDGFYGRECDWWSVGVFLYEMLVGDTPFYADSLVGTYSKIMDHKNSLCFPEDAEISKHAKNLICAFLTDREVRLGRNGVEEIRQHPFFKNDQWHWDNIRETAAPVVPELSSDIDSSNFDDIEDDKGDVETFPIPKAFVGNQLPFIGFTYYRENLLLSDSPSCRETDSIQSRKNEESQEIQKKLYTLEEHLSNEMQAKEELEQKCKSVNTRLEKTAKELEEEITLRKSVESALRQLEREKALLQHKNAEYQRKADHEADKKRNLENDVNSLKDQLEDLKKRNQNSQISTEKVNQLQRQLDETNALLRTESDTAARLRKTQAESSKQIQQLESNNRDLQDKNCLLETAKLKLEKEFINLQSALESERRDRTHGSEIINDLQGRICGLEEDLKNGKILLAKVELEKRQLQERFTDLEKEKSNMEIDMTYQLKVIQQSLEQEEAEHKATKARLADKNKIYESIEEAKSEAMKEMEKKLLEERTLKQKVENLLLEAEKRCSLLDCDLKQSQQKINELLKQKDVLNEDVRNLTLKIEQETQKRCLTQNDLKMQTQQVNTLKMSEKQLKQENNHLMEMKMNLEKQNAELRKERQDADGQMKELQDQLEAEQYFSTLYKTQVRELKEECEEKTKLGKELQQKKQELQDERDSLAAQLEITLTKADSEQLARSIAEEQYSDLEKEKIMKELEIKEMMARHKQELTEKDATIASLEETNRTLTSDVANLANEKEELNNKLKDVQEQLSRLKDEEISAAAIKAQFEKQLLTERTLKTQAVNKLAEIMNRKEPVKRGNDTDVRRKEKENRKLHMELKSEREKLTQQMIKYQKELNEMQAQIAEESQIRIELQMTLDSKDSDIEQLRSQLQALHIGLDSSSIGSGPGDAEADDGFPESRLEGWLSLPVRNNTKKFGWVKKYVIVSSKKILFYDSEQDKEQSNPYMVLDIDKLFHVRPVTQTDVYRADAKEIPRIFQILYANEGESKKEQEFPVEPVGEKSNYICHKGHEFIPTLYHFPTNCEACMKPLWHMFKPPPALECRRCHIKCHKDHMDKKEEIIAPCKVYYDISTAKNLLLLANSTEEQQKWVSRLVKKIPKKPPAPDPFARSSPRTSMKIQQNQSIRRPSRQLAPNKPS
Test: ROCK2 kinase inhibition assay (LABCHIP 3000 Reader, FITC peptide substrate);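 further: rho kinase reaction read by separating phosphorylated from unphosphorylated peptide on chip, with inhibition of kinase activity computed per concentration across a dose-response series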
pIC50: −log10 of the molar value.

The observed pIC50 for Cn1ncc2cc(C(=O)N[C@H]3CC4(C3)C[C@H](Oc3ncccc3C(N)=O)C4)ccc21 (some centres unmarked) when tested with ROCK2 (Homo sapiens, UniProt O75116) stands at 6.60 to 7.30

The observed pIC50 for CC(C)(O)COc1ccc2c(C(=O)NC3CC4(C3)CC(Oc3cc(O)ccc3C(N)=O)C4)cnn2c1 (centres unmarked) when tested with ROCK2 (Homo sapiens, UniProt O75116) stands at 7.30 to 8.30

The observed pIC50 for N#Cc1cc(C(=O)N[C@H]2CC3(C2)C[C@H](Oc2ncccc2C(N)=O)C3)cc(-c2ccc(C#N)nc2)c1 (some centres unmarked) when tested with ROCK2 (Homo sapiens, UniProt O75116) stands at 7.30 to 8.30

The observed pIC50 for NC(=O)c1cccnc1O[C@H]1CC2(C[C@H](NC(=O)c3cn4cc(Cl)ccc4n3)C2)C1 (some centres unmarked) when tested with ROCK2 (Homo sapiens, UniProt O75116) stands at 5.60 to 6.60

The observed pIC50 for NC(=O)c1cccnc1O[C@H]1CC2(C[C@H](NC(=O)c3cnn4cc(N5CC(CO)(CO)C5)ccc34)C2)C1 (some centres unmarked) when tested with ROCK2 (Homo sapiens, UniProt O75116) stands at 6.60 to 7.30

The observed pIC50 for NC(=O)c1cccnc1O[C@H]1CC2(C[C@H](NC(=O)c3cnn4cc(OC(F)F)ccc34)C2)C1 (some centres unmarked) when tested with ROCK2 (Homo sapiens, UniProt O75116) stands at 7.30 to 8.30

The observed pIC50 for CC(C)(O)COc1ccc2c(C(=O)NC3CC4(C3)CC(Oc3cc(N5CCCC5)ccc3C(N)=O)C4)cnn2c1 (centres unmarked) when tested with ROCK2 (Homo sapiens, UniProt O75116) stands at 7.30 to 8.30

The observed pIC50 for CC(C)(O)COc1ccc2c(C(=O)NC3CC4(C3)CC(Oc3cc(-c5cccc(C(F)(F)F)c5)ccc3C(N)=O)C4)cnn2c1 (centres unmarked) when tested with ROCK2 (Homo sapiens, UniProt O75116) stands at 6.60 to 7.30

The observed pIC50 for NC(=O)c1cccnc1O[C@H]1CC2(C[C@H](NC(=O)c3cnc4cc(OCC(F)F)ccn34)C2)C1 (some centres unmarked) when tested with ROCK2 (Homo sapiens, UniProt O75116) stands at 7.30 to 8.30

The observed pIC50 for CC(C)(C)c1cc(C(=O)N[C@H]2CC3(C2)C[C@H](Oc2ncccc2C(N)=O)C3)n(CC(F)F)n1 (some centres unmarked) when tested with ROCK2 (Homo sapiens, UniProt O75116) stands at 5.60 to 6.60

The observed pIC50 for CC(C)(O)COc1ccc2c(C(=O)N[C@H]3CC4(C3)C[C@H](Oc3nnccc3C(N)=O)C4)cnn2c1 (some centres unmarked) when tested with ROCK2 (Homo sapiens, UniProt O75116) stands at 6.60 to 7.30

The observed pIC50 for [H][C@]1(Oc2ncccc2C(N)=O)C[C@@]2(C[C@H](NC(=O)c3cc(C4CC4)n4c(Cl)c(OCc5ccccc5)ccc34)C2)C1 (some centres unmarked) when tested with ROCK2 (Homo sapiens, UniProt O75116) stands at 7.30 to 8.30

The observed pIC50 for CC(C)(O)COc1ccc2c(C(=O)NC3CC4(C3)CC(Oc3cc(-c5cccc(F)n5)ccc3C(N)=O)C4)cnn2c1 (centres unmarked) when tested with ROCK2 (Homo sapiens, UniProt O75116) stands at > 8.30

The observed pIC50 for NC(=O)c1ccccc1O[C@H]1CC2(C[C@H](NC(=O)c3cnn4c(C5CC5)c(OCCO)ccc34)C2)C1 (some centres unmarked) when tested with ROCK2 (Homo sapiens, UniProt O75116) stands at 7.30 to 8.30
